- Test system: non-small cell lung cancer (NCI-H1299) cell line
- assay_protocol: MTT cancer cell proliferation, NCI-H1299
- Type: cell-based
- test_parameters: Homo sapiens, NCI-H1299; MTT, 72 hours; read-out: IC50 proliferation NCI-H1299
pIC50: −log10 of the molar value.

[
  {
    "compound": "CC(=O)c1c(C)c2cnc(Nc3ccc(N4CCNCC4)cn3)nc2n(C2CCCC2)c1=O [Palbociclib, reference compound]",
    "pIC50": 5.38
  }
]

###

- assay_protocol: Pharmacokinetics in SD rats
- Assay type: in vivo
- test_parameters: rat, plasma, iv tail vein 1 mg/kg

[
  {
    "compound": "CCN1CCN(C(=O)c2ccc(Nc3ncc(F)c(-c4ccc5nc(N(C)C)sc5c4)n3)nc2)CC1 [Example 31]",
    "Cmax, ng/mL": 974
  }
]

###

- Tested on: non-small cell lung cancer (NCI-H1299) cell line
- assay_protocol: MTT cancer cell proliferation, NCI-H1299
- Assay type: cell-based
- test_parameters: Homo sapiens, NCI-H1299, 72 h, read-out: IC50 proliferation NCI-H1299
pIC50: −log10 of the molar value.
property_measured: pIC50

[
  {
    "structure": "CCN1CCN(C(=O)c2ccc(Nc3ncc(F)c(-c4ccc5nc(N(C)C)sc5c4)n3)nc2)CC1",
    "readout_value": 5.67
  }
]

###

- Test system: prostate cancer (Du-145) cell line
- assay_protocol: MTT cancer cell proliferation, Du-145
- Type: cell-based
- test_parameters: Homo sapiens, DU-145; MTT, 72 hours; read-out: IC50 proliferation Du-145

[
  {
    "compound": "CC(=O)c1c(C)c2cnc(Nc3ccc(N4CCNCC4)cn3)nc2n(C2CCCC2)c1=O [Palbociclib, reference compound]",
    "scale_unit": "µM",
    "IC50": 4.57
  }
]

###

- System: pancreatic cancer (Panc-1) cell line
- assay_protocol: MTT cancer cell proliferation, Panc-1
- Format: cell-based
- test_parameters: Homo sapiens, PANC-1, 72 h, read-out: IC50 proliferation Panc-1

[
  {
    "structure": "CCN1CCN(C(=O)c2ccc(Nc3ncc(F)c(-c4ccc5nc(N(C)C)sc5c4)n3)nc2)CC1",
    "scale_unit": "µM",
    "IC50": 1.93
  }
]

###

- assay_protocol: Pharmacokinetics in SD rats
- Type: in vivo
- test_parameters: rat, plasma, iv tail vein 1 mg/kg, read-out: t ½ (converted)

[
  {
    "compound": "CCN1CCN(C(=O)c2ccc(Nc3ncc(F)c(-c4ccc5nc(N(C)C)sc5c4)n3)nc2)CC1 [Example 31]",
    "half-life, min": 179
  }
]

###

- Tested on: lung cancer (A-549)
- assay_protocol: MTT cancer cell proliferation, A-549
- Assay type: cell-based
- test_parameters: Homo sapiens, A549, 72 h, read-out: IC50 proliferation A-549
pIC50: −log10 of the molar value.
property_measured: pIC50

[
  {
    "compound": "CCN1CCN(C(=O)c2ccc(Nc3ncc(F)c(-c4ccc5nc(N(C)C)sc5c4)n3)nc2)CC1 [Example 31]",
    "readout_value": 5.78
  }
]

###

- assay_protocol: Pharmacokinetics in SD rats
- Format: in vivo
- test_parameters: rat, plasma, po gavage 10 mg/kg

[
  {
    "structure": "CCN1CCN(C(=O)c2ccc(Nc3ncc(F)c(-c4ccc5nc(N(C)C)sc5c4)n3)nc2)CC1",
    "Cmax": "674 ng/mL"
  }
]

// data source = patent US20230303553A1
